Test system: P. Falciparum NF54
Assay: Plasmodium falciparum in vitro assay ([3H]-hypoxanthine incorporation)
Assay type: cell-based
Conditions: Plasmodium falciparum, Erythrocyte, P. Falciparum NF54, erythrocytic stages in human red blood cells, 50% human serum
Counter-ions that a name gives are not always drawn.
Assign IC50 to each entry below.
One number for each entry, in µM.

Here's what some known entries look like.
Compound	Unit Abbreviation	IC50
Cc1cc(Nc2ccc(CN(C(=O)/C=C/c3ccc(C(F)(F)F)cc3)C3CCN(C)CC3)cc2)ccn1	µM	0.067
Cc1cc(Nc2ccc(CN(C(=O)/C=C/c3ccc(C(F)(F)F)cc3)C3CCN(C(C)C)CC3)cc2)ccn1	µM	0.043
CN(c1ccncc1)c1ccc(CN(C(=O)/C=C/c2cccc(Cl)c2)C2CCN(Cc3ccccc3)CC2)cc1	µM	0.087

Okay, here is my list. What is IC50 for each of these?
1. O=C(/C=C/c1ccc(C(F)(F)F)cc1)N(Cc1ccc(Nc2ccncn2)nc1)C1CCN(C2CCCC2)CC1
2. CN(c1ccncc1)c1ccc(CN(C(=O)/C=C/c2ccc(C(F)(F)F)cc2)C2CCN(Cc3cnn(-c4ccccc4)c3)CC2)cc1
3. CC(C)N1CCC(N(Cc2cccc(Nc3ccncn3)c2)C(=O)/C=C/c2ccc(C(F)(F)F)cc2)CC1 [Example 125, formate]
4. Cc1cc(Nc2ccc(CN(C(=O)/C=C/c3ccc(C(F)(F)F)cc3)C3CCN(Cc4cccnc4)CC3)cc2)ccn1
5. Cc1cc(Nc2ccc(CN(C(=O)/C=C/c3ccc(Cl)cc3)C3CCN(C4CCCC4)CC3)cn2)ccn1
6. O=C(/C=C/c1ccc(C(F)(F)F)cc1)N(Cc1ccc(Nc2ccccc2)cc1)C1CCN(C2CCCC2)CC1
7. CN(c1ccncc1)c1ccc(CN(C(=O)/C=C/c2ccc(C(F)(F)F)cc2)C2CCN(Cc3ccc(C#N)cc3)CC2)cc1

Data returned:
1. 0.42
2. 0.051
3. 0.34
4. 0.101
5. 0.134
6. 0.418
7. 0.064

----------
Test system: P. Falciparum NF54
Test: Plasmodium falciparum in vitro assay ([3H]-hypoxanthine incorporation)
Assay type: cell-based
Settings: Plasmodium falciparum, Erythrocyte, P. Falciparum NF54, erythrocytic stages in human red blood cells, 50% human serum
Protocol: In Vitro Antimalarial Activity: Plasmodium falciparum In Vitro Assay: In vitro activity against erythrocytic stages of P. Falciparum in human red blood cells is determined using a [^3H]-hypoxanthine incorporation assay. One strain sensitive to all drugs (P. […] The dried filters are inserted into a plastic foil with 10 mL of scintillation fluid and counted in a Betaplate liquid scintillation counter. IC50 values are calculated from sigmoidal inhibition curves using Microsoft Excel.
Where a name gives a salt, the structure may show the parent alone.
Measurement Type: log10(IC50) (log10 of the value in nM)
Scale type: logarithmic (base 10). Underlying IC50 unit: nM.

Solved cases (8 shown):
Compound	Assayed Target	Measurement Type	Reported Result
CN(c1ccncc1)c1ccc(CN(C(=O)/C=C/c2ccc(C(F)(F)F)cc2)[C@@H]2CCCN(C3CCCC3)C2)cc1 [Example 59]	P. Falciparum NF54	log10(IC50)	1.90
Cc1cc(Nc2ccc(CN(C(=O)/C=C/c3ccc(C(F)(F)F)cc3)C3CCN(Cc4cc(C)on4)CC3)cc2)ccn1 [Example 34]	P. Falciparum NF54	log10(IC50)	2.38
CN1CCC(N2CCC(N(Cc3ccc(Nc4ccncc4)cc3)C(=O)/C=C/c3ccc(OC(F)(F)F)cc3)CC2)CC1 [Example 118]	P. Falciparum NF54	log10(IC50)	1.92
CC(C)CCN1CC[C@@H](N(Cc2ccc(N(C)c3ccncc3)cc2)C(=O)/C=C/c2ccc(C(F)(F)F)cc2)[C@H](F)C1 (racemic) [Example 81]	P. Falciparum NF54	log10(IC50)	2.09
CC(C)N1CCC(N(Cc2cncc(N(C)c3ccccn3)c2)C(=O)/C=C/c2ccc(C(F)(F)F)cc2)CC1 [Example 140, formate]	P. Falciparum NF54	log10(IC50)	2.55
O=C(/C=C/c1ccc(C(F)(F)F)cc1)N(Cc1ccc(Oc2ccncc2)cc1)C1CCN(C2CCCC2)CC1 [Example 207]	P. Falciparum NF54	log10(IC50)	2.61
Cc1cc(Nc2ccc(CN(C(=O)/C=C/c3ccc(C(F)(F)F)cc3)C3CCN(C4CCCC4)CC3)cn2)ncn1 [Example 109]	P. Falciparum NF54	log10(IC50)	2.59
CN(c1ccncc1)c1ccc(CN(C(=O)/C=C/c2cccc(F)c2)C2CCN(Cc3ccccc3)CC2)cc1 [Example 156]	P. Falciparum NF54	log10(IC50)	2.00

Hi team, please reply with log10(IC50) for each item in this list.
1. Cc1cc(Nc2ccc(CN(CC3CCN(C4CCN(C)CC4)CC3)C(=O)/C=C/c3ccc(C(F)(F)F)cc3)cc2)ccn1 [Example 172]
2. COc1cccc(/C=C/C(=O)N(Cc2ccc(N(C)c3ccncc3)cc2)C2CCN(Cc3ccccc3)CC2)c1 [Example 150]
3. Cc1cc(Nc2ccc(CN(C(=O)/C=C/c3ccc(C(F)(F)F)cc3)C3CCN(C4CCCC4)CC3)cc2)ccn1 [Example 95]
4. CN1CCC(N(C)c2ccc(CN(C(=O)/C=C/c3ccc(C(F)(F)F)cc3)C3CCN(Cc4ccccc4)CC3)cc2)CC1 [Example 177]
5. CN1CCC(N2CCC(N(Cc3ccc(C(=O)c4ccncc4)cc3)C(=O)/C=C/c3ccc(C(F)(F)F)cc3)CC2)CC1 [Example 194]
6. O=C(/C=C/c1ccc(C(F)(F)F)cc1)N(Cc1ccc(Nc2cncnc2)cc1)C1CCN(C2CCCC2)CC1 [Example 91]

Data returned:
2.25
2.47
1.11
2.38
2.10
2.46
